Reference source: patent US20040014740A1

test system: binding site of a radiolabelled ligand (assay of U.S. Patent No. 5,859,188); assay: binding assay as described in U.S. Patent No. 5,859,188: percent displacement of a radiolabelled ligand; details: 25 uM; percent displacement of radiolabelled ligand
Listed here are compounds together with their documented Testing Result % inhibition at indicated concentration.
QUANTITY_MEASURED: Testing Result % inhibition at indicated concentration

{"COMPOUND": "CCOC(=O)c1c(NC(=O)CN2CCCCC2)sc2c1CCC(c1ccccc1)C2 (centres unmarked)", "RECORDED_MEASUREMENT": "36% at 25 uM"}
{"COMPOUND": "CCOC(=O)C1=C(NC(=O)CN2CCOCC2)SC2CCCCCC12 (centres unmarked)", "RECORDED_MEASUREMENT": "38% at 25 uM"}
{"COMPOUND": "CC(C)OC(=O)c1c(-c2ccc(Cl)c(Cl)c2)csc1NC(=O)CN1CCCCC1", "RECORDED_MEASUREMENT": "0-9% at 25 uM"}
{"COMPOUND": "CC(C)OC(=O)c1c(NC(=O)CN2CCCCC2)sc2c1CCCC2", "RECORDED_MEASUREMENT": "34-54% at 25 uM"}
{"COMPOUND": "CCOC(=O)c1c(NC(=O)CN2CCCC2)sc2c1CCCC2", "RECORDED_MEASUREMENT": "68-75% at 25 uM"}
{"COMPOUND": "CCOC(=O)c1c(NC(=O)CN2CCCC2)sc2c1CCC2", "RECORDED_MEASUREMENT": "83-88% at 25 uM"}
{"COMPOUND": "CCOC(=O)c1c(NC(=O)CN2CCC(O)CC2)sc2c1CCCC2", "RECORDED_MEASUREMENT": "31-34% at 25 uM"}
{"COMPOUND": "CCOC(=O)c1c(NC(=O)CN2CCC2)sc2c1CCCC2", "RECORDED_MEASUREMENT": "28% at 25 uM"}

====

Listed here are molecules together with their documented Testing Result % inhibition at indicated concentration, Test 1.
system: binding site of a radiolabelled ligand (assay of U.S. Patent No. 5,859,188); assay: binding assay as described in U.S. Patent No. 5,859,188: percent displacement of a radiolabelled ligand; conditions: Test 1; 25 uM; percent displacement of radiolabelled ligand
QUANTITY_MEASURED: Testing Result % inhibition at indicated concentration, Test 1

{"MOLECULE": "CCOC(=O)c1c(C)csc1NC(=O)CN1CCCCC1", "RECORDED_MEASUREMENT": "58-70%"}
{"MOLECULE": "CCOC(=O)C1=C(NC(=O)CN2CCCCC2)SC2CCCCCC12 (stereo not shown)", "RECORDED_MEASUREMENT": "82%"}
{"MOLECULE": "CCOC(=O)c1c(NC(=O)CN2CCCCC2)sc2c1CCN(C(=O)OCC)C2", "RECORDED_MEASUREMENT": "50-52%"}
{"MOLECULE": "CCOC(=O)c1c(NC(=O)C(C)N2CCCCC2)sc2c1CCCC2 (stereo not shown)", "RECORDED_MEASUREMENT": "46-73%"}
{"MOLECULE": "CCCOC(=O)c1c(NC(=O)CN2CCCCC2)sc2c1CCCC2", "RECORDED_MEASUREMENT": "52-65%"}
{"MOLECULE": "CCOC(=O)c1c(-c2ccc(Br)cc2)csc1NC(=O)CN1CCCCC1", "RECORDED_MEASUREMENT": "44-55%"}
{"MOLECULE": "CCOC(=O)c1c(NC(=O)CN2CCCCC2)sc2c1CCN(Cc1ccccc1)C2", "RECORDED_MEASUREMENT": "48-51%"}
{"MOLECULE": "CCOC(=O)c1c(-c2ccco2)csc1NC(=O)CN1CCCCC1", "RECORDED_MEASUREMENT": "70-75%"}
{"MOLECULE": "CCOC(=O)c1c(NC(=O)CN2CCCCC2)sc2c1CC(C)(CC)OC2 (stereo not shown)", "RECORDED_MEASUREMENT": "93-100%"}
{"MOLECULE": "CCOC(=O)c1c(NC(=O)CN2CCCCC2)sc2c1CC(C)CC2 (stereo not shown)", "RECORDED_MEASUREMENT": "65-74%"}

====

Listed here are compounds together with their documented Testing Result % inhibition at indicated concentration, Test 1.
test system: binding site of a radiolabelled ligand (assay of U.S. Patent No. 5,859,188); assay: binding assay as described in U.S. Patent No. 5,859,188: percent displacement of a radiolabelled ligand; conditions: Test 1; 25 uM; percent displacement of radiolabelled ligand
QUANTITY_MEASURED: Testing Result % inhibition at indicated concentration, Test 1

{"CHEMICAL_STRING": "CCOC(=O)c1c(-c2ccncc2)csc1NC(=O)CN1CCCCC1", "RECORDED_MEASUREMENT": "15-43%"}
{"CHEMICAL_STRING": "COC(=O)c1c(NC(=O)CN2CCCCC2)sc2c1CCCC2", "RECORDED_MEASUREMENT": "55-70%"}
{"CHEMICAL_STRING": "CCOC(=O)c1c(-c2ccc(C)cn2)csc1NC(=O)CN1CCCCC1", "RECORDED_MEASUREMENT": "42%"}
{"CHEMICAL_STRING": "CCOC(=O)c1cc(-c2ccsc2)sc1NC(=O)CN1CCCCC1", "RECORDED_MEASUREMENT": "46-66%"}
{"CHEMICAL_STRING": "CCOC(=O)c1c(-c2ccsc2)csc1NC(=O)CN1CCCCC1", "RECORDED_MEASUREMENT": "40-63%"}

====

tested on: binding site of a radiolabelled ligand (assay of U.S. Patent No. 5,859,188); test: binding assay as described in U.S. Patent No. 5,859,188: percent displacement of a radiolabelled ligand; details: 25 uM; percent displacement of radiolabelled ligand
QUANTITY_MEASURED: Testing Result % inhibition at indicated concentration (% at 25 uM)

{"COMPOUND": "CCOC(=O)c1c(NC(=O)CN2CCCCCC2)sc2c1CCCC2 [h]", "STUDY_TARGET": "binding site of a radiolabelled ligand (assay of U.S. Patent No. 5,859,188)", "RECORDED_MEASUREMENT": 46}
{"COMPOUND": "CCOC(=O)c1c(NC(=O)CN2CCCCC2)sc(Cl)c1-c1ccccc1 [l]", "STUDY_TARGET": "binding site of a radiolabelled ligand (assay of U.S. Patent No. 5,859,188)", "RECORDED_MEASUREMENT": 35}
{"COMPOUND": "CCOC(=O)c1c(NC(=O)CN2CCCCC2)sc2c1CCC(C(C)(C)C)C2 (stereo not drawn) [n]", "STUDY_TARGET": "binding site of a radiolabelled ligand (assay of U.S. Patent No. 5,859,188)", "RECORDED_MEASUREMENT": 13}

====

Listed here are compounds together with their documented Testing Result % inhibition at indicated concentration, Test 2.
system: binding site of a radiolabelled ligand (assay of U.S. Patent No. 5,859,188); assay: binding assay as described in U.S. Patent No. 5,859,188: percent displacement of a radiolabelled ligand; settings: Test 2; concentration not given for Test 2
QUANTITY_MEASURED: Testing Result % inhibition at indicated concentration, Test 2

{"COMPOUND": "CCOC(=O)c1c(NC(=O)CN2CCCCC2)sc2c1CC(C)CC2 (stereo not drawn)", "STUDY_TARGET": "binding site of a radiolabelled ligand (assay of U.S. Patent No. 5,859,188)", "RECORDED_MEASUREMENT": "15-22%"}
{"COMPOUND": "CCOC(=O)C1=C(NC(=O)CN2CCCCC2)SC2CCCCCC12 (stereo not drawn)", "STUDY_TARGET": "binding site of a radiolabelled ligand (assay of U.S. Patent No. 5,859,188)", "RECORDED_MEASUREMENT": "53%"}
{"COMPOUND": "CCOC(=O)c1c(-c2ccsc2)csc1NC(=O)CN1CCCCC1", "STUDY_TARGET": "binding site of a radiolabelled ligand (assay of U.S. Patent No. 5,859,188)", "RECORDED_MEASUREMENT": "18-38%"}
{"COMPOUND": "CCOC(=O)c1c(-c2ccncc2)csc1NC(=O)CN1CCCCC1", "STUDY_TARGET": "binding site of a radiolabelled ligand (assay of U.S. Patent No. 5,859,188)", "RECORDED_MEASUREMENT": "14-17%"}
{"COMPOUND": "CCOC(=O)c1c(NC(=O)C(C)N2CCCCC2)sc2c1CCCC2 (stereo not drawn)", "STUDY_TARGET": "binding site of a radiolabelled ligand (assay of U.S. Patent No. 5,859,188)", "RECORDED_MEASUREMENT": "38-40%"}
{"COMPOUND": "CCOC(=O)c1c(NC(=O)CN2CCCCC2)sc2c1CC(C)(CC)OC2 (stereo not drawn)", "STUDY_TARGET": "binding site of a radiolabelled ligand (assay of U.S. Patent No. 5,859,188)", "RECORDED_MEASUREMENT": "69-79%"}
{"COMPOUND": "COC(=O)c1c(NC(=O)CN2CCCCC2)sc2c1CCCC2", "STUDY_TARGET": "binding site of a radiolabelled ligand (assay of U.S. Patent No. 5,859,188)", "RECORDED_MEASUREMENT": "41-55%"}
{"COMPOUND": "CCOC(=O)c1c(NC(=O)CN2CCCCC2)sc2c1CCN(C(=O)OCC)C2", "STUDY_TARGET": "binding site of a radiolabelled ligand (assay of U.S. Patent No. 5,859,188)", "RECORDED_MEASUREMENT": "33-49%"}
{"COMPOUND": "CCOC(=O)c1c(NC(=O)CN2CCCCC2)sc2c1CCN(Cc1ccccc1)C2", "STUDY_TARGET": "binding site of a radiolabelled ligand (assay of U.S. Patent No. 5,859,188)", "RECORDED_MEASUREMENT": "0-14%"}
{"COMPOUND": "CCCOC(=O)c1c(NC(=O)CN2CCCCC2)sc2c1CCCC2", "STUDY_TARGET": "binding site of a radiolabelled ligand (assay of U.S. Patent No. 5,859,188)", "RECORDED_MEASUREMENT": "33-54%"}
{"COMPOUND": "CCOC(=O)c1c(-c2ccc(C)cn2)csc1NC(=O)CN1CCCCC1", "STUDY_TARGET": "binding site of a radiolabelled ligand (assay of U.S. Patent No. 5,859,188)", "RECORDED_MEASUREMENT": "26%"}
{"COMPOUND": "CCOC(=O)c1cc(-c2ccsc2)sc1NC(=O)CN1CCCCC1", "STUDY_TARGET": "binding site of a radiolabelled ligand (assay of U.S. Patent No. 5,859,188)", "RECORDED_MEASUREMENT": "37-43%"}
{"COMPOUND": "CCOC(=O)c1c(-c2ccco2)csc1NC(=O)CN1CCCCC1", "STUDY_TARGET": "binding site of a radiolabelled ligand (assay of U.S. Patent No. 5,859,188)", "RECORDED_MEASUREMENT": "24-40%"}
{"COMPOUND": "CCOC(=O)c1c(C)csc1NC(=O)CN1CCCCC1", "STUDY_TARGET": "binding site of a radiolabelled ligand (assay of U.S. Patent No. 5,859,188)", "RECORDED_MEASUREMENT": "39-47%"}
{"COMPOUND": "CCOC(=O)c1c(-c2ccc(Br)cc2)csc1NC(=O)CN1CCCCC1", "STUDY_TARGET": "binding site of a radiolabelled ligand (assay of U.S. Patent No. 5,859,188)", "RECORDED_MEASUREMENT": "37-43%"}
